Data credit: PubChem BioAssay (NCI)

system: OVCAR-4 ovarian; assay: NCI-60 one-dose screen, 48 h (100 = growth as untreated, 0 = no growth, -100 = all killed); conditions: 10 µM unless noted
The panel holds about 83,000 compounds, 20% with a hit somewhere; the sample as a whole holds those more often. Active and inactive are the calls of the source. The calls were made as follows: active = growth percent below 10; inactive = the rest.
Here the recorded growth is given for each entry.

- Cpd Smiles: "Cc1cccc(-c2cc(O)c(C(=O)N3CCOCC3)s2)c1"
  Assay Result: "77.3% (inactive)"
- Cpd Smiles: "COC(=O)c1ccc(CSc2nnc(-c3ccncc3)o2)cc1"
  Assay Result: "99.5% (inactive)"
- Cpd Smiles: "O=C(Nc1ccccc1)c1sc(-c2cccc(C(F)(F)F)c2)cc1O"
  Assay Result: "76.1% (inactive)"

Okay, now this compound:
In: Identify the reported growth for the following entry. CCNCCNc1cc(-c2ccc(C(=O)OC)cc2)c(C#N)c2nc3ccccc3n12
Out: -19.2% (active)

---

tested on: COLO 205 colon; experiment: NCI-60 one-dose screen, 48 h; details: 10 µM unless noted
About 83,000 compounds went through this panel and 20% of them were active in at least one assay; those are over-represented in the sample as a whole. The source made the active and inactive calls. Rule for the calls: active = growth percent below 10; inactive = the rest.
Parameter call: string, one of 1 for active, -1 for inactive

- Compound: "COc1ccc2cc(-c3ccc(C(=O)NN)c(C)n3)ccc2c1"
  Group Label: -1
- Compound: "Cc1ccc(O)c(C(=O)c2ccccc2Cl)c1"
  Group Label: -1
- Compound: "O=C(C[C@@]1(O)C(=O)Nc2c(Cl)ccc(Cl)c21)c1ccc(C2CC2)cc1"
  Group Label: 1

In: What call does the record list for COc1c(C)cnc(CSc2nc(-c3ccc(C)cc3)cn2-c2ccc(Cl)cc2)c1C ?
Out: -1

In: For this compound, state the assay outcome: COc1ccc(-c2cc(-c3ccc(Nc4nc(Nc5ccccc5)nc(Nc5ccc(Cl)cc5)n4)cc3)nc(N)n2)cc1
Out: -1

In: Called result for COc1ccc(OC)c(C(=O)Nc2cccc(-c3cc(=O)c4ccccc4o3)c2)c1
Out: -1

In: Hello, I am checking results. What call was entered for C[C@@H]1CC[C@@H]2[C@@H]1[C@H](OC(=O)/C=C/c1ccccc1)[C@]1(C3CCCCC3)C[C@@H](NC(=O)CO)[C@@]2(C)O1 ?
Out: -1

In: Status in this test for COc1ccc(/C=C2\COc3ccc(O)cc3C2=O)cc1OC ?
Out: -1

In: Assay outcome for COc1cc(-c2cc(-c3ccc(Nc4nc(Nc5ccccc5)nc(Nc5ccc(Cl)cc5)n4)cc3)nc(N)n2)cc(OC)c1OC : what was it?
Out: -1

In: I'd appreciate the recorded outcome for Cc1nc(Nc2ccc(NC(=S)Nc3ccccc3)cc2)nc2nc(Nc3ccc(S(=O)(=O)O)cc3)[nH]c(=O)c12 from this test.
Out: -1

In: Short answer needed: outcome of this test for O=c1[nH]c(=O)n(C2CC(O)C(CO)O2)cc1CO (stereo not given) ?
Out: -1

In: Assay result, entry NC(=O)CC1(O)C=C(Br)C(=O)C(Br)=C1 — outcome?
Out: 1

In: Recorded call for COc1ccc(C2=NC(=O)NC2c2ccc(OC)cc2)cc1 (stereo not given) ?
Out: -1

In: Returns: the outcome recorded for C/C(Cc1ccc(Cl)cc1)=C(/c1ccc(Cl)cc1)c1ccc(OCCN(C)C)cc1 in this assay.
Out: 1

In: Which outcome did this test record for the compound CC(=O)NCC(=O)Nc1ccc(-c2nnc3ccccn23)nc1.CC(=O)NCC(=O)Nc1ccc(-c2nnc3ccccn23)nc1.[Pt+2] ?
Out: -1

In: Entry COc1ccc(OC)c(/C=C2\COc3ccc(O)c(O)c3C2=O)c1 : call = ?
Out: -1

In: Tell me the recorded outcome of this test for Fc1ccc(Nc2nc(Nc3ccc(-c4nc5ccccc5[nH]4)cc3)c3cn[nH]c3n2)cc1 .
Out: -1

In: Check the results log: what was the call for CCOC(=O)c1ccc(-c2ccc3cc(OC)ccc3c2)nc1C ?
Out: -1

In: Dear all, I need the recorded test outcome for COc1cc2oc(-c3cccc(C(=O)Nc4ccc(C#N)cc4)c3)cc(=O)c2c(O)c1OC , thank you.
Out: -1

In: Status in this test for CC(C)c1ccc(NC(=O)Cc2ccc(Nc3ncnc4cc(-c5cnn(CCN(C)C)c5)ccc34)cc2)cc1 ?
Out: 1

In: Dear colleague, could you share the recorded outcome for COc1ccc(-c2nc3sc4c(c3c(=O)[nH]2)CCCC4)c2ccccc12 when you have a moment?
Out: 1

In: Please indicate how the test categorized O=C1CC(c2ccc3c(c2)OCO3)Nc2cc3c(cc21)OCO3 (stereo not given) .
Out: 1

In: What is the recorded call for this compound in the test? Clc1ccc(/C=N\N=c2\scc(-c3ccc(Cl)cc3)n2/N=C/c2ccc(Cl)cc2)cc1
Out: -1

In: How was O[C@H]1CO[C@H]2[C@@H]1OC[C@@H]2Oc1ccc(Nc2ccnc(Nc3ccc(O[C@H]4CO[C@H]5[C@@H]4OC[C@@H]5O)c(Cl)c3)n2)cc1Cl classified in this test?
Out: -1

In: Hello, I am checking results. What call was entered for COc1cc2c(O)n(CCCn3ccnc3)c3c4cnc5cccc(c(=O)c3c2cc1OC)c54 ?
Out: -1

In: Hey, what did the test say about Nc1c(-c2nc3ccc(Br)cc3c(=O)[nH]2)nnn1-c1ccccc1 ?
Out: -1

In: In this assay, the call recorded for CO[C@H]1/C=C/O[C@@]2(C)Oc3c(C)c(O)c4c(c3C2=O)C(=O)C(/C=N/N(c2ccccc2)c2ccccc2)=C(NC(=O)/C(C)=C\C=C\[C@H](C)[C@H](O)[C@@H](C)[C@@H](O)[C@@H](C)[C@H](OC(C)=O)[C@@H]1C)C4=O was what?
Out: 1

In: Name the outcome recorded for CCCCCCCCCCCCCCCCCC1=NCCN1C(=O)OCCO in the assay.
Out: 1

In: Fill in: this test's call for COc1ccc(-c2c(N)n[nH]c2-c2ccccc2O)cc1OC is ___
Out: -1

---

tested on: UACC-62 melanoma; assay: NCI-60 one-dose screen, 48 h (100 = growth as untreated, 0 = no growth, -100 = all killed); settings: 10 µM unless noted
The panel holds about 83,000 compounds, 20% with a hit somewhere; the sample as a whole holds those more often. Active and inactive are the calls of the source. The calls were made as follows: active = growth percent below 10; inactive = the rest.
Measurement Name: growth

In: Read off the recorded growth for CO/C(=C1/NC(=O)C(Cc2ccc(O)c(Br)c2)N(C)C(=O)C(C)NC(=O)CCC/C=C(\C)CCC(C)OC1=O)c1ccccc1 (stereo not given)
Out: 9.3% (active)

In: Return reported growth. Input compound: Nc1nc(Nc2ccc(Cl)cc2)nn1S(=O)(=O)c1ccc(-c2ccc(F)cc2)cc1
Out: 72.5% (inactive)

In: Return the recorded growth value; entry: Cc1ccc(C)c2c1C(=O)OC2=O
Out: 101% (inactive)

In: Please give the documented growth of Nc1c(C(=O)c2ccccc2)nnc2ncnn12
Out: 99.7% (inactive)

In: Respond only with growth recorded for CCCCN1CCN(c2ccc3nc(-c4ccc5nc(-c6ccc(OCC)c(OCC)c6)[nH]c5c4)[nH]c3c2)CC1
Out: 17.7% (inactive)

In: Output growth of CCOc1cc(C2C(Cl)C(=O)N2n2cnnc2)ccc1O (stereo not given)
Out: 95.5% (inactive)

In: In one line, give reported growth of the entry CCCCN(CCCC)CCCn1c(=O)c2sc3ncccc3c2n2nnc(-c3ccccc3)c12 .
Out: 90.8% (inactive)

In: Return growth (reported value) for this compound: CC(=O)c1ccc2c(c1)CCN2
Out: 102% (inactive)

In: Quickly give me recorded growth for Nc1ccc(CCCCc2ccccc2)c(Cl)c1
Out: 93.4% (inactive)

In: Give reported growth value for O=C1Nc2ccccc2/C1=N/N=C/c1ccc(OC2OC(CO)C(O)C(O)C2O)cc1 (stereo not given)
Out: 101% (inactive)

---

# reported growth; entries follow
Tested on: EKVX NSCLC
Test: NCI-60 one-dose screen, 48 h (100 = growth as untreated, 0 = no growth, -100 = all killed)
Details: 10 µM unless noted
Method: Growth inhibition of the EKVX human Non-Small Cell Lung tumor cell line is measured as a screen for anti-cancer activity. Cells are grown in 96 well plates and exposed to the test compound for 48 hours. Compounds are tested at a single concentration, which is 10^-5 M for most compounds. The reported endpoint is percent growth (GI% or GIPRCNT), where numbers from 0 - 100% represent growth inhibition, and numbers from -100% - 0 represent cell death. […]
Compounds without any hit were thinned out: in the full panel of roughly 83,000, 20% have a hit.
Give the value in % but do not write % after it.

As a guide, the following entries are already answered.
- Cpd Smiles: "CSc1nc2sc3cc(Cl)ccc3n2c(=N)c1C#N"
  Target Desc: "EKVX NSCLC"
  Scale Unit: "%"
  growth: 81.9
- Cpd Smiles: "CC(=O)c1ccc2c(c1)CCN2"
  Target Desc: "EKVX NSCLC"
  Scale Unit: "%"
  growth: 117
- Cpd Smiles: "Cc1ccc(S(=O)(=O)Nc2sccc2-c2nc(-c3ccccc3)no2)cc1"
  Target Desc: "EKVX NSCLC"
  Scale Unit: "%"
  growth: 94.2

In: Tell me growth of C[C@@H]1CC[C@@H]2[C@@H]1[C@H](OC(=O)/C=C/c1ccccc1)[C@]1(CCCOCCOCCOCCOC(=O)CCCC[C@@H]3SC[C@@H]4NC(=O)N[C@@H]43)C[C@@H](OC(=O)CO)[C@@]2(C)O1 when tested on EKVX NSCLC.
Out: 101

In: Would you please give the reported growth of CCNCCNc1cc(C2CCCC2)c(C#N)c2nc3ccccc3n12 with EKVX NSCLC?
Out: 38

In: Give growth for COc1ccc(OC)c(C(=O)Nc2cccc(-c3cc(=O)c4ccccc4o3)c2)c1 tested on EKVX NSCLC.
Out: 90.5
